Molecular target: Taq DNA polymerase (K540C/H784C)/R25S (UniProt P19821 P19821:1-832, K540C,H784C,R25S)
Sequence (P19821 whole entry R25S/K540C/H784C, one chain of several): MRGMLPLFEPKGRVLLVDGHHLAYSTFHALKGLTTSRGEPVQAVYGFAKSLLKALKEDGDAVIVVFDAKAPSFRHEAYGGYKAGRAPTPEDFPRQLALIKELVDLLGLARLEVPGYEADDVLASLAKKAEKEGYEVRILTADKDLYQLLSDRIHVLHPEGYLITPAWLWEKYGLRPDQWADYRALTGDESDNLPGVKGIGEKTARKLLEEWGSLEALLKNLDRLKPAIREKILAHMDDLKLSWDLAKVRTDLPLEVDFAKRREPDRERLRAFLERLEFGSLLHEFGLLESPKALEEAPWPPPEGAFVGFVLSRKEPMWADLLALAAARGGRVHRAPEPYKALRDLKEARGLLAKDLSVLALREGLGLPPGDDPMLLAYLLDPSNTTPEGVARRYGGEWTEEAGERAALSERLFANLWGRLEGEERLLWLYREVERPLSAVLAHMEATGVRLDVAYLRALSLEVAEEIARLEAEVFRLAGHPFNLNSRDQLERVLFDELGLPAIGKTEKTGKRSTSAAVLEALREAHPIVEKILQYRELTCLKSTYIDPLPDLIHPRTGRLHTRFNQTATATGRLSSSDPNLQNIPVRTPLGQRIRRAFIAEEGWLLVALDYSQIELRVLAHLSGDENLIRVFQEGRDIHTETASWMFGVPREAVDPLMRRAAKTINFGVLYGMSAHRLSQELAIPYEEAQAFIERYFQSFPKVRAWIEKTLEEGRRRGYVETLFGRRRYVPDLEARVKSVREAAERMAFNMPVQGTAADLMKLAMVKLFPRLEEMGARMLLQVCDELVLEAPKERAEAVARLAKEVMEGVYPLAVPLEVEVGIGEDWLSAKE
Experiment: EMSA; 1x TAE with 2 mM EDTA, pH 8.3, 10% glycerol
Settings: tags: Fermentas; label: 5'-33P on 24 nt strand; 24 nt primer annealed to 44 nt template, 20 nt 5' template overhang
Description: […] Affinity of Taq DNA polymerase (FIG. 8A) and its mutants (FIG. 8B-G) for single-stranded DNA (primer) was analyzed as described in Example 7, except that 5′-labeled 24 nt oligonucleotide (5′-[…]) was used instead of 24*/44 nt duplex (FIG. 8).
quantity: Kd (nM)
Respond with the bare value in nM.

Input line: Fill in: Kd of 24/44 nt template-primer duplex (dsDNA) DNA 1: TTTTAGCCGCTAGAGTCGACCTGC DNA 2: GGAGACAAGCTTGTATGCCTGCAGGTCGACTCTAGCGGCTAAAA is ___
Output line: 56
